biological target: Recombinant human Yes (Homo sapiens (Human), UniProt P07947); assay: Yes kinase inhibition in vitro (luciferase-based residual ATP, KinaseGlo); details: ATP 3 μM, PTK2 substrate, 90 minutes at room temperature
Sequence (P07947 whole entry): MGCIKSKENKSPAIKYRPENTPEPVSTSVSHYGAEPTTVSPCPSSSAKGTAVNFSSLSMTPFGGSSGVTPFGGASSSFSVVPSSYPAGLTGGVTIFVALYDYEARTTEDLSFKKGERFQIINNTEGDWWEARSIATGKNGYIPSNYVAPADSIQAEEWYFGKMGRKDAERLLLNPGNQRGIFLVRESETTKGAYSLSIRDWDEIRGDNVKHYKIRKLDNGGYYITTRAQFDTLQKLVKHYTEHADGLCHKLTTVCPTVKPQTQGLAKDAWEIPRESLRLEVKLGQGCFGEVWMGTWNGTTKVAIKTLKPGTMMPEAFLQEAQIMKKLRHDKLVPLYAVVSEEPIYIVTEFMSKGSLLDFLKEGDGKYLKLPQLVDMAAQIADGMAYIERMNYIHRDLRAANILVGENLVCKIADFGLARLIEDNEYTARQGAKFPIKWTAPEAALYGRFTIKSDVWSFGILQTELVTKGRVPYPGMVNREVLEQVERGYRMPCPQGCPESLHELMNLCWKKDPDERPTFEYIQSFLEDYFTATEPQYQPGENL
readout-label: pIC50
// scale note: pIC50 = -log10(conc_M); give the bare number

Ask: What pIC50 value was documented for this compound, "Cc1cc(-c2cc(O)ccc2Cl)cc2nnc(Nc3ccc(OCCN4CCCC4)cc3)nc12" ?
Reply: 9.30

###

Observed pIC50 for UniProtKB P09619, reported per entry below.
Sequence (P09619 33-1106): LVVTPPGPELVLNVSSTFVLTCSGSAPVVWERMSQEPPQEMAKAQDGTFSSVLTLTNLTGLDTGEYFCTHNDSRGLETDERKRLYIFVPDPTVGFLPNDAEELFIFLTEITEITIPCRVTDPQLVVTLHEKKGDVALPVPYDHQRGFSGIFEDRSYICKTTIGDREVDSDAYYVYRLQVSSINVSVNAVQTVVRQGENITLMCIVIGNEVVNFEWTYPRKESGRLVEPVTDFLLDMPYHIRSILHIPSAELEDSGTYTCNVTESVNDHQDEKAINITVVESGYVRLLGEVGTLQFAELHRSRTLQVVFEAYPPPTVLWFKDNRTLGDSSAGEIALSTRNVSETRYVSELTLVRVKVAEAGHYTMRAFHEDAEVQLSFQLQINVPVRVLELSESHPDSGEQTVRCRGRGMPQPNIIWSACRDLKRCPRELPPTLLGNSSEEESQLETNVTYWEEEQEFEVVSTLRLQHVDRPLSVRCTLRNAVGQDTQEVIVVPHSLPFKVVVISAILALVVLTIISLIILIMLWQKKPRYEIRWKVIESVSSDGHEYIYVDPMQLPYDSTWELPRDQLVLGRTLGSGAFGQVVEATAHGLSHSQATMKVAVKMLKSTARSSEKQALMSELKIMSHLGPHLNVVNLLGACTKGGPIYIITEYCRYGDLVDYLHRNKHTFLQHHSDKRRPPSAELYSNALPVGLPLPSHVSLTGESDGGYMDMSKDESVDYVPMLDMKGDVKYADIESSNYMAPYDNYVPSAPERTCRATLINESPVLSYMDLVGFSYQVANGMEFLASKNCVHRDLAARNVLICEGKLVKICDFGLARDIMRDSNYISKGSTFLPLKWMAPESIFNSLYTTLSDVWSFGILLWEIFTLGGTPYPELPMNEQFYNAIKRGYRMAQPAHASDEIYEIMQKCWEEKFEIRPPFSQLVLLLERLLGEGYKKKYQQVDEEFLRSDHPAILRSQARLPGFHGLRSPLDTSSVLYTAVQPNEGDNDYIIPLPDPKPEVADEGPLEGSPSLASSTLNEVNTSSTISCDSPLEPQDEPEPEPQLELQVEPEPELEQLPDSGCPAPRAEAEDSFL
// scale note: pIC50 = -log10(conc_M); give the bare number

Example entries begin here.
sample-smiles | subject-of-test | observed-result
Cc1cc2nc(Nc3ccc(C(=O)N4CCN(C)CC4)cc3)nnc2cc1-c1cc(O)ccc1Cl | UniProtKB P09619 | 8.43
COc1cc2nc(Nc3ccc(S(=O)(=O)NCCN4CCCC4)cc3)nnc2cc1-c1ccccc1C | UniProtKB P09619 | 7.41
Cc1ccccc1-c1cc2nnc(Nc3ccc(S(=O)(=O)NCCN4CCCC4)cc3)nc2cc1C | UniProtKB P09619 | 7.61
COc1ccc(Cl)c(-c2cc3nnc(Nc4ccc(C(=O)N5CCN(C)CC5)cc4)nc3cc2C)c1 | UniProtKB P09619 | 8.46
CC(=O)Nc1cc(-c2c(C)cccc2C)cc2nnc(Nc3ccc(OCCN4CCCC4)cc3)nc12 | UniProtKB P09619 | 7.94
Cc1cc(-c2cc(O)ccc2Cl)cc2nnc(Nc3ccc(N4CCOCC4)nc3)nc12 | UniProtKB P09619 | 8.68
Cc1cc(-c2cc(O)ccc2Cl)cc2nnc(Nc3cccc(C(=O)NCCN(C)C)c3)nc12 | UniProtKB P09619 | 8.28
Cc1cc(-c2c(Cl)cccc2Cl)cc2nnc(Nc3ccc(OCCN4CCCC4)cc3)nc12 | UniProtKB P09619 | 7.82

# evaluate next
Ask: What pIC50 value was documented for this compound, "Cc1cc(-c2cc(O)ccc2Cl)cc2nnc(Nc3ccc(C(=O)N4CCNCC4)cc3)nc12" ?
Reply: 8.92

###

target: UniProtKB P09619
Threshold check on IC50: strictly below 0.02 µM is T; on or above 0.02 µM is F.

// below: answered molecules
sample-smiles | class-label
Cc1cc(-c2cc(O)ccc2Cl)cc2nnc(Nc3cccc(N(C)C)c3)nc12 | F
Cc1cccc(C)c1-c1cc(C)c2nc(Nc3cccc(S(=O)(=O)N4CCN(C)CC4)c3)nnc2c1 | F
Cc1cccc(C)c1-c1cc(C)c2nc(Nc3cccc(S(N)(=O)=O)c3)nnc2c1 | T
Cc1cccc(C)c1-c1cc(C)c2nc(Nc3nc(C(=O)NCCN4CCCC4)cs3)nnc2c1 | F
Cc1cc(-c2cc(O)ccc2Cl)cc2nnc(Nc3cccnc3)nc12 | F
Cc1cc2nc(Nc3ccc(S(=O)(=O)NCCN4CCCC4)cc3)nnc2cc1-c1cc(O)ccc1Cl | T
Cc1cc(-c2cc(O)ccc2Cl)cc2nnc(Nc3ccc(OCCN4CCCC4)cc3)nc12 | T
Cc1cc2nc(Nc3ccc(OCCN4CCCC4)cc3)nnc2cc1-c1cc(O)ccc1Cl | T

Next, consider the following molecule.
Ask: Answer whether the molecule "Cc1cc(-c2cc(O)ccc2Cl)cc2nnc(Nc3ccc(S(=O)(=O)N(C)CCN4CCCC4)cc3)nc12" has IC50 strictly less than 0.02 µM
Reply: T

###

pIC50 listing for selected compounds.
biological target: Recombinant human c-Src (Homo sapiens (Human)); assay: Src kinase inhibition in vitro (luciferase-based residual ATP, KinaseGlo); details: ATP 3 μM, PTK2 substrate, 90 minutes at room temperature
// scale note: pIC50 = -log10(conc_M); give the bare number

Example entries begin here.
sample-smiles | pIC50
Cc1cc2nc(Nc3ccc(S(=O)(=O)NCCN4CCCC4)cc3)nnc2cc1-c1c(C)cccc1C | 7.98
Cc1cc(-c2c(O)cccc2Cl)cc2nnc(Nc3ccc(S(=O)(=O)NCCN4CCCC4)cc3)nc12 | 7.90
CNc1cc(-c2c(C)cccc2C)cc2nnc(Nc3ccc(OCCN4CCCC4)cc3)nc12 | 7.97
Cc1cccc(C)c1-c1cc2nnc(Nc3ccccc3)nc2c(C)c1C | 6.89
Cc1cccc(C)c1-c1cc(C)c2nc(Nc3ccc(N(C)C)cc3)nnc2c1 | 6.61

Ask: What pIC50 value was documented for this compound, "CNc1cccc(-c2cc(C)c3nc(Nc4ccc(S(=O)(=O)NCCN5CCCC5)cc4)nnc3c2)c1" ?
Reply: 6.20

Ask: What pIC50 value was documented for this compound, "Cc1noc(C)c1-c1cc(C)c2nc(Nc3ccc(OCCN4CCCC4)cc3)nnc2c1" ?
Reply: 6.68

Ask: What pIC50 value was documented for this compound, "COc1ccc(Cl)cc1-c1cc(C)c2nc(Nc3ccc(OCCN4CCCC4)cc3)nnc2c1" ?
Reply: 5.92

Ask: What pIC50 value was documented for this compound, "COc1cccc(Cl)c1-c1cc(C)c2nc(Nc3ccc(OCCN4CCCC4)cc3)nnc2c1" ?
Reply: 6.30

Ask: What pIC50 value was documented for this compound, "Cc1cccc(C)c1-c1cc(C)c2nc(Nc3cccc(Cl)c3)nnc2c1" ?
Reply: 6.87

###

pIC50 listing for selected molecules.
molecular target: Recombinant human c-Src (Homo sapiens (Human), UniProt P12931); experiment: Src kinase inhibition in vitro (luciferase-based residual ATP, KinaseGlo); conditions: ATP 3 μM, PTK2 substrate, 90 minutes at room temperature
Sequence (P12931 whole entry, looked up): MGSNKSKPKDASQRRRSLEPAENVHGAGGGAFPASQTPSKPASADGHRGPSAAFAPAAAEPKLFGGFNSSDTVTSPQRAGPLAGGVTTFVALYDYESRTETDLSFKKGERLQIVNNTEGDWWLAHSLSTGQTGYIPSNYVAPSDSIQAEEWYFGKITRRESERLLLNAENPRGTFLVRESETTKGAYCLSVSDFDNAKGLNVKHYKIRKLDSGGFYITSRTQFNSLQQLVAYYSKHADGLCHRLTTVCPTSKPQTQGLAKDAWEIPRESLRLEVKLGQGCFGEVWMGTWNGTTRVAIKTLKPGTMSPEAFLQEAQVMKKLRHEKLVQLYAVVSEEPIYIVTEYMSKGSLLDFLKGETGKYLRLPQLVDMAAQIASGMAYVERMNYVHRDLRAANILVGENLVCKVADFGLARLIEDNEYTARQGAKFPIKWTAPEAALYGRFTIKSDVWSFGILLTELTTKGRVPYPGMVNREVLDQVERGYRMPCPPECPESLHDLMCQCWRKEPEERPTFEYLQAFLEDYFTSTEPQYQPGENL
pIC50: −log10 of the molar value.

Example entries begin here.
sample-smiles | subject-of-test | observed-result
Cc1cc(C)c(-c2cc(C)c3nc(Nc4ccccc4)nnc3c2)c(C)c1 | Recombinant human c-Src (Homo sapiens (Human), UniProt P12931) | < 5.00
COc1ccccc1Nc1nnc2cc(-c3c(C)cccc3C)cc(C)c2n1 | Recombinant human c-Src (Homo sapiens (Human), UniProt P12931) | < 4.00
Cc1cccc(Nc2nnc3cc(-c4c(C)cccc4C)cc(C)c3n2)c1C | Recombinant human c-Src (Homo sapiens (Human), UniProt P12931) | < 5.00
Cc1cccc(C)c1-c1cc(C)c2nc(Nc3ccccn3)nnc2c1 | Recombinant human c-Src (Homo sapiens (Human), UniProt P12931) | < 5.00

Ask: What pIC50 value was documented for this molecule, "CC(=O)Nc1nnc2cc(-c3c(C)cccc3C)cc(C)c2n1" ?
Reply: < 5.00

Ask: What pIC50 value was documented for this molecule, "Cc1ccc(C)c(Nc2nnc3cc(-c4c(C)cccc4C)cc(C)c3n2)c1" ?
Reply: < 5.00

Ask: What pIC50 value was documented for this molecule, "Cc1cc(-c2cc(OC(=O)c3ccccc3)ccc2Cl)cc2nnc(Nc3ccc(OCCN4CCCC4)cc3)nc12" ?
Reply: < 5.00

Ask: What pIC50 value was documented for this molecule, "Cc1ccc(Nc2nnc3cc(-c4c(C)cccc4C)cc(C)c3n2)c(C)c1" ?
Reply: < 5.00

Ask: What pIC50 value was documented for this molecule, "CCCCc1ccc(Nc2nnc3cc(-c4c(C)cccc4C)cc(C)c3n2)cc1" ?
Reply: < 4.00

###

biological target: Recombinant human c-Src (Homo sapiens (Human)); test: Src kinase inhibition in vitro (luciferase-based residual ATP, KinaseGlo); conditions: ATP 3 μM, PTK2 substrate, 90 minutes at room temperature
pIC50: −log10 of the molar value.
readout-label: pIC50

Ask: What pIC50 value was documented for this compound, "Cc1cc2nc(Nc3ccc(S(=O)(=O)NCCN4CCCC4)cc3)nnc2cc1Br" ?
Reply: < 5.00

Ask: What pIC50 value was documented for this compound, "Cc1cc(N2CCCCC2)cc2nnc(Nc3cccnc3)nc12" ?
Reply: < 5.00

Ask: What pIC50 value was documented for this compound, "Cc1cccc(C)c1-c1cc(C)c2nc(Nc3cccc4cccnc34)nnc2c1" ?
Reply: < 5.00
